Attribution: a melting point compilation (Tetko et al.; mined from patent text by program, amines drawn as free bases though some values may be those of a salt)

readout: melting point

Look over these answered cases.
compound=C=CCN1CCC=C(c2csc(N)n2)C1 readout="melting point" result="129 to 132 °C"
compound="CCC(O)c1c(C)nc2ccccc2c1N (stereo not given)" readout="melting point" result="220 to 230 °C"
compound=Cc1c(C(F)(F)F)nn(C)c1O readout="melting point" result="148 to 151 °C"
compound=CC(=O)c1cccc(NC(=O)CCCC(=O)Nc2cccc(C(C)=O)c2)c1 readout="melting point" result="174 to 175 °C"

Proceed to the following item.
### Prompt Need melting point of "FC(F)c1cc(-c2cccc(C(F)(F)F)c2)nc2ccnn12" , thanks.
### Response 127 °C
